Please respond with reported % blocking of MIP8a-PE binding for every item in the list.
target: T1, membrane-bound full-length human CD89 (human, UniProt P24071 22-287); assay: FACS, HEK293F-huCD89, unlabeled Ab 10 ug/mL first; competitor MIP8a-PE
T1 construct: on stably or transiently transfected HEK293F cells; also called FcalphaRI; huCD89

Answered examples (2):
| BINDER | % blocking of MIP8a-PE binding |
| --- | --- |
| mouse anti-human CD89-specific antibody 16D6 (antibody, mouse IgG1, V domains shown, also called 16D16) VH: QVQLQQSGAELMKPGASVKISCKATGYTFSTYWIEWVKQRPGHGLEWIGEILPGSGSANYNEKFKGKATFTADTSSNTAYMQLSSLTFEDSAVYYCAKGFGSPYYYAMDYWGQGTSVTVSS VL: EIVLTQSPALMAASPGEKVTITCSVSSSISSSNLHWYQQKSETSPKPWIYGTSKLASGVPVRFSGSGSGTSYSLTISNMEAEDAATYYCQQWSSFPLTFGGGTKLEIK | < 25% |
| mouse anti-human CD89-specific antibody 10E7 (antibody, mouse IgG1, V domains shown) VH: EVQLVESGGGLVQPGGSLKLSCAASGLTFSSYGMSWVRQTPDKRLELVATINGNGDITYYPDSVKGRFTISRDNAKNTLYLQMSSLKSEDTAMYYCARDYDYDYAMDYWGQGTSVTVSS VL: DIQMTQSTSSLSASLGDSVTISCRASQDIINYLNWYQQKPDGTVKLLIYYTSRLHSGVPSRFSGSGSGTEYSLTVSNLEKEDIATYFCQQGKTLPYTFGGGTKLEIK | < 25% |

Kindly consider the entry below.
% blocking of MIP8a-PE binding measured on mouse anti-human CD89-specific antibody 20B4 (antibody, mouse IgG1, V domains shown) VH: QVQLKESGPGLVAPSQSLSITCTVSGFSLTSYGVHWVRQPPGKGLEWLGIIWAGGSTSYNSALMSRLSISKDNSKSQVFLKMNSLQTDDTAMYYCARDHYDLFAYWGQGTLVTVSA VL: DILMTQSPSSMSVSLGDTVSITCHASQDISRNIGWLQQKPGKSFKGLIYHGTNLEDGVPSRFSGSGSGADYSLTISSLESEDFADYYCVQYAQFPRTFGGGTKLEIK = < 25%
